Protocol notes: chemical genetic growth profiling, strain panel (AID 1159580);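 further: tested at 20 µM; growth read once vehicle control cultures reached saturation at 30 °C; 1 = growth at the plate median or of vehicle wells; lower values mean less growth of the strain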
Run parameters: S. cerevisiae deletion strains, growth OD, locus YDL074C, strain BRE1, hits give low values
Hit rate of the full screen: of about 5,500 compounds, about 2,000 (36%) were called active. Not shown: some 18% with an inconclusive outcome. This is one part of the list.
Result type: normalized growth

>  <Molecule>
CC1CC2C3CCC4=CC(=O)C=C[C@]4(C)[C@@]3(F)[C@@H](O)C[C@]2(C)[C@@]1(O)C(=O)CO (some centres undefined)

>  <normalized growth>
0.979 (inactive)

$$$$
>  <Molecule>
CC(=O)N[C@@H](CC(C)C)C(=O)O

>  <normalized growth>
1.02 (inactive)

$$$$
>  <Molecule>
NC(=O)c1ccc[n+]([C@@H]2O[C@H](COP(=O)([O-])OP(=O)(O)OC[C@H]3O[C@@H](n4cnc5c(N)ncnc54)[C@H](O)[C@@H]3O)[C@@H](O)[C@H]2O)c1

>  <normalized growth>
1.03 (inactive)

$$$$

Query molecule follows.
Enquiry: # normalized growth lookup, item CC1=C(/C=C/C(C)=C/C=C/C(C)=C/C=C/C=C(C)/C=C/C=C(C)/C=C/C23OC2(C)CC(O)CC3(C)C)C(C)(C)CC(O)C1 (centres undefined)
Return: 1.03 (inactive)

* * *

Protocol notes: chemical genetic growth profiling, strain panel (AID 1159580);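 further: tested at 20 µM; growth read once vehicle control cultures reached saturation at 30 °C; 1 = growth at the plate median or of vehicle wells; lower values mean less growth of the strain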
Run parameters: S. cerevisiae deletion strains, growth OD, locus YER110C, hits give low values
Screen size: about 5,500 compounds; about 2,000 (36%) were called active. Not shown: some 18% with an inconclusive outcome. This is one part of the list.
Exercise: for every item that follows, state its recorded normalized growth.
Answers are plain numbers.

>  <Compound>
OCC(O)C(O)C(O)CO (stereo unspecified)

>  <Test result>
0.983

$$$$
>  <Compound>
COc1cc(NC(C)CCCN)c2ncccc2c1 (stereo unspecified)

>  <Test result>
1.01

$$$$
>  <Compound>
CCOC(=O)[C@H](CCc1ccccc1)N[C@H]1CCc2ccccc2N(CC(=O)O)C1=O

>  <Test result>
0.979

$$$$
>  <Compound>
CC(NCCc1ccc(O)cc1)C(O)c1ccc(O)cc1 (stereo unspecified)

>  <Test result>
0.977

$$$$
>  <Compound>
Cc1cc(O)c(C=O)c(O)c1C(=O)O

>  <Test result>
1.01

$$$$

Query compound follows.
Enquiry: # normalized growth lookup, item C[N+](C)(C)CCOC(N)=O
Return: 0.944

* * *

Protocol notes: chemical genetic growth profiling, strain panel (AID 1159580);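 further: tested at 20 µM; growth read once vehicle control cultures reached saturation at 30 °C; 1 = growth at the plate median or of vehicle wells; lower values mean less growth of the strain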
Run parameters: S. cerevisiae deletion strains, growth OD, locus YHR013C, strain ard1, hits give low values
Screen size: about 5,500 compounds; about 2,000 (36%) were called active. About 18% were inconclusive and are not listed. This is one part of the list.
Hi! Just check whether normalized growth is below 1. Below gives class 1, equal or above gives class 0.

Use these answered entries as a reference point.
>  <Compound>
CC(C[N+](C)(C)C)OC(N)=O (stereo unspecified)

>  <Category>
class 0

$$$$
>  <Compound>
COc1ccc2c(c1OC)C(=O)O[C@@H]2[C@H]1c2cc3c(cc2CCN1C)OCO3

>  <Category>
class 1

$$$$
>  <Compound>
CC1=C(/C=C/C(C)=C/C=C/C(C)=C/C=C/C=C(C)/C=C/C=C(C)/C=C/C(=O)[C@]2(C)C[C@@H](O)CC2(C)C)C(C)(C)C[C@H](O)C1

>  <Category>
class 0

$$$$

Enquiry: Below 1 on normalized growth? Entry CCOC(=O)C(=O)C1(C(=O)OCC)Oc2cc(OC)cc(OC)c2C(=O)C1c1ccccc1 (stereo unspecified)
Return: class 1

Enquiry: Below 1 on normalized growth? Entry COc1ccc2cc([C@H](C)CO)ccc2c1
Return: class 0

Enquiry: Below 1 on normalized growth? Entry O=C(O)C1(O)C[C@@H](O)C(O)[C@H](O)C1 (stereo partly specified)
Return: class 1
